Values compiled from PubChem BioAssay (NCI).

- test.details: NCI Yeast Anticancer Drug Screen. Data for the sgs1 strain (AID 173);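 further: 0% = growth of vehicle-only control cultures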
- run.parameters: S. cerevisiae sgs1 mutant, at 33.0 µM, hits give high values
This is part of a sample that, as a whole, favours compounds with a hit. Of some 79,000 tested, about 15% had one in any assay.
recorded.metric: growth inhibition (%)
Respond with the bare value in %.

Reference set, count: 8
compound | growth inhibition, %
Cc1cc(=O)oc2c(C)c3occc(=O)c3cc12 | 6
O=Cc1ccc2c(c1)C(=O)c1ccccc1C2=O | 38
O=C1CC(=O)c2ccccc21 | 18
c1ccc2[nH]c(-c3cscn3)nc2c1 | -3
COc1nc2c(c(=O)n1C)N=C(c1ccccc1)[C@H](C(CC(=O)c1ccccc1)c1ccccc1)C(c1ccccc1)N2 (stereo not given in full) | 40
O=C1OC(C2=CC(=O)c3ccccc3C2=O)C(Cl)=C1Cl (stereo not given) | 79
CCC1(OC(=O)CN2CCN(CCO)CC2)C(=O)OCc2c1cc1n(c2=O)Cc2cc3ccccc3nc2-1 (stereo not given) | 21
OC(/C=C/c1ccccc1)(Cc1cc(-c2ccccc2)n[nH]1)c1ccccc1 (stereo not given) | 9

Entry C[C@@](O)(/C=C/[C@H]1CC=CC(=O)O1)[C@@H](C[C@@H](O)\C=C/C=C\C=C\CO)OP(=O)(O)O : reported growth inhibition = ?
59

Request: COC(=O)C1(C)CCc2c(ccc3ccccc23)C1=O (stereo not given)
34

Request: Nc1ncnc2c1ncn2C1OC(CO)CC1O (stereo not given)
72

Request: O=C1N=C2SC=C(NC(=S)Nc3ccccc3)N2NC12c1ccccc1-c1ccccc12
81
